# Test system: U2OS
# procedure_details: Multiplex assay against U2OS
# Format: toxicity, cell-based
# condition_context: human, 48 h, 10 µM, compound concentration 10 uM
Listed compounds paired with reported Population Mitochondria Different-Phenotype (%)
Form entry: value (%) — number only.

Below are worked cases with known answers.
Cc1sc2c(c1C)C(c1ccc(Cl)cc1)=N[C@@H](CC(=O)NCCCCCCCCNC(=O)COc1cccc3c1C(=O)N(C1CCC(=O)NC1=O)C3=O)c1nnc(C)n1-2 (some centres undefined)	4
CCCCCC(O)/C=C/[C@H]1C(=O)CC(O)C1C/C=C\CCCC(=O)O (some centres undefined)	3
Cc1ccc(-c2ccc(F)cc2COc2ccc(CCC(=O)O)cc2)cc1	3

Lookup: Population Mitochondria Different-Phenotype (%) for CN1CCN(c2cc(-c3ccccc3)nc(N)n2)CC1 ?
Found: 3
